The values you see were collected from ChEMBL document CHEMBL5257097.

ASSAY SUMMARY: Cytotoxicity against African green monkey Vero 76 cells infected with Punta Toro virus assessed as reduction in cell viability by visual analysis
Type: toxicity, cell-based
TEST SETTINGS: chlorocebus sabaeus
REPORTED ENDPOINT: CC50
Remember to follow the number with its unit.

response.value for Nc1ncnn2c([C@@H]3N[C@H](CO)[C@@H](O)[C@H]3O)ccc12 (field: CC50) = 13 µM

====

selectivity ratio values by entry
ASSAY SUMMARY: Selectivity index, ratio of CC50 for cytotoxicity against African green monkey Vero 76 infected with Zika virus assessed as reduction in cell viability by visual analysis to EC50 for antiviral activity against Zika virus infected in African green monkey Vero 76 cells assessed as reduction in virus-induced cytopathic effect by visual analysis
Type: toxicity, cell-based
TEST SETTINGS: Vero 76 cells infected with Zika virus, read-out: Ratio CC50/EC50
The answer should be a number; do not append a unit.

STRUCTURE SMILES STRING: Nc1ncnn2c([C@@H]3N[C@H](CO)[C@@H](O)[C@H]3O)ccc12
selectivity ratio: 19

Kindly consider the entry below.
response.value for Nc1ncnc2c([C@@H]3N[C@H](CO)[C@@H](O)[C@H]3O)n[nH]c12 (field: selectivity ratio) = 3.1

====

ASSAY SUMMARY: Selectivity index, ratio of CC50 for cytotoxicity against dog MDCK cells infected with Influenza A virus H3N2 assessed as reduction in cell viability by visual analysis to EC50 for antiviral activity against Influenza A virus H3N2 infected in dog MDCK cells assessed as inhibition of viral replication by visual analysis
Format: toxicity, cell-based
TEST SETTINGS: read-out: Ratio CC50/EC50
REPORTED ENDPOINT: selectivity ratio
The answer should be a number; do not append a unit.

response.value for Nc1ncnn2c([C@@H]3N[C@H](CO)[C@@H](O)[C@H]3O)ccc12 (field: selectivity ratio) = 38

====

ASSAY SUMMARY: Selectivity index, ratio of CC50 for cytotoxicity against African green monkey Vero E6 cells infected with Severe fever with thrombocytopenia syndrome virus assessed as reduction in cell viability to EC90 for antiviral activity against Severe fever with thrombocytopenia syndrome virus infected in African green monkey Vero E6 cells assessed as reduction in viral replication
Type: toxicity, cell-based, Vero C1008
REPORTED ENDPOINT: selectivity ratio
The answer should be a number; do not append a unit.

response.value for Nc1ncnn2c([C@@H]3N[C@H](CO)[C@@H](O)[C@H]3O)ccc12 (field: selectivity ratio) = 49

====

ASSAY SUMMARY: Selectivity index, ratio of CC50 for cytotoxicity against African green monkey Vero E6 cells infected with Heartland virus assessed as reduction in cell viability to EC90 for antiviral activity against Heartland virus infected in African green monkey Vero E6 cells assessed as reduction in viral yield
Type: toxicity, cell-based, Vero C1008
REPORTED ENDPOINT: selectivity ratio
The answer should be a number; do not append a unit.

response.value for Nc1ncnn2c([C@@H]3N[C@H](CO)[C@@H](O)[C@H]3O)ccc12 (field: selectivity ratio) = 97

====

ASSAY SUMMARY: Selectivity index, ratio of CC50 for cytotoxicity against African green monkey Vero cells infected with JUNV assessed as reduction in cell viability by visual analysis to EC50 for antiviral activity against JUNV infected in African green monkey Vero cells assessed as reduction in viral replication by visual analysis
Type: toxicity, cell-based
TEST SETTINGS: read-out: Ratio CC50/EC50
REPORTED ENDPOINT: selectivity ratio
The answer should be a number; do not append a unit.

response.value for Nc1ncnn2c([C@@H]3N[C@H](CO)[C@@H](O)[C@H]3O)ccc12 (field: selectivity ratio) = 22

====

ASSAY SUMMARY: Selectivity index, ratio of CC50 for cytotoxicity against African green monkey Vero E6 cells infected with Maporal virus assessed as reduction in cell viability to EC90 for antiviral activity against Maporal virus infected in African green monkey Vero E6 cells assessed as reduction in viral yield
Assay type: toxicity, cell-based, Vero C1008
REPORTED ENDPOINT: selectivity ratio

response.value for Nc1ncnn2c([C@@H]3N[C@H](CO)[C@@H](O)[C@H]3O)ccc12 (field: selectivity ratio) = 15

====

ASSAY SUMMARY: Cytotoxicity against dog MDCK cells infected with Influenza B virus
Type: toxicity, cell-based, Canis lupus familiaris
REPORTED ENDPOINT: CC50

response.value for NC(=O)c1ncn([C@@H]2O[C@H](CO)[C@@H](O)[C@H]2O)n1 (field: CC50) = > 1000 µM

====

ASSAY SUMMARY: Selectivity index, ratio of CC50 for cytotoxicity against African green monkey Vero 76 cells infected with La Crosse virus assessed as reduction in cell viability by neutral red dye analysis to EC50 for antiviral activity against La Crosse virus infected in African green monkey Vero 76 cells assessed as reduction in viral replication by neutral red dye analysis
Format: toxicity, cell-based
TEST SETTINGS: read-out: Ratio CC50/EC50
REPORTED ENDPOINT: selectivity ratio

response.value for Nc1ncnn2c([C@@H]3N[C@H](CO)[C@@H](O)[C@H]3O)ccc12 (field: selectivity ratio) = > 240

====

CC50 values by entry
ASSAY SUMMARY: Cytotoxicity against African green monkey Vero 76 cells infected with Zika virus assessed as reduction in cell viability by neutral red dye based assay
Format: toxicity
TEST SETTINGS: chlorocebus sabaeus

In the examples that follow, each entry is paired with its recorded CC50.
STRUCTURE SMILES STRING: Nc1ncnc2c([C@@H]3N[C@H](CO)[C@@H](O)[C@H]3O)c[nH]c12
RESULT: > 100 µM
//
STRUCTURE SMILES STRING: Nc1ncnn2c([C@@H]3N[C@H](CO)[C@@H](O)[C@H]3O)ccc12
RESULT: 4.4 µM

response.value for Nc1ncnc2c([C@@H]3N[C@H](CO)[C@@H](O)[C@H]3O)n[nH]c12 (field: CC50) = 13 µM

====

ASSAY SUMMARY: Cytotoxicity against African green monkey Vero cells infected with Tacaribe virus assessed as reduction in cell viability by visual analysis
Assay type: toxicity, cell-based
TEST SETTINGS: chlorocebus sabaeus
REPORTED ENDPOINT: CC50 (µM)
Your answer is read as µM, so omit the unit and give the number.

response.value for Nc1ncnn2c([C@@H]3N[C@H](CO)[C@@H](O)[C@H]3O)ccc12 (field: CC50) = 12
